Hey, just so you know, these numbers are from patent US11629201B2.

# System: PC-3 PIP/flu tumor-bearing mice
# Test description: Biodistribution studies in PC-3 PIP/flu tumor-bearing mice
# Settings: 24 h p.i.
Quantity measured: Heart (% IA/g)
Answers are plain numbers, in % IA/g.

These solved cases illustrate the format of a correct answer.
[[record]]
compound = "O=C(O)CCC(NC(=O)NC(CCCCNC(=O)C(Cc1ccc2ccccc2c1)NC(=O)C1CCC(CNC(=O)C(CCCCNC(=O)CN2CCN(CC(=O)O)CCN(CC(=O)O)CCN(CC(=O)O)CC2)NC(=O)CC(NC(=O)CC(NC(=O)CCCc2ccc(I)cc2)C(=O)O)C(=O)O)CC1)C(=O)O)C(=O)O (stereo not shown) [^177Lu-PSMA-ALB-05, metal not drawn]"
quantity_measured = "Heart"
quantitative_result = 0.65

[[record]]
compound = "Cc1ccc(CCCC(=O)NC(CC(=O)NC(CC(=O)NC(CC(=O)NC(CCCCNC(=O)CN2CCN(CC(=O)O)CCN(CC(=O)O)CCN(CC(=O)O)CC2)C(=O)NCC2CCC(C(=O)NC(Cc3ccc4ccccc4c3)C(=O)NCCCCC(NC(=O)NC(CCC(=O)O)C(=O)O)C(=O)O)CC2)C(=O)O)C(=O)O)C(=O)O)cc1 (stereo not shown) [^177Lu-PSMA-ALB-08, metal not drawn]"
quantity_measured = "Heart"
quantitative_result = 0.04

[[record]]
compound = "O=C(O)CCC(NC(=O)NC(CCCCNC(=O)C(Cc1ccc2ccccc2c1)NC(=O)C1CCC(n2cc(CC(NC(=O)CN3CCN(CC(=O)O)CCN(CC(=O)O)CCN(CC(=O)O)CC3)C(=O)NC(CCCCNC(=O)CCCc3ccc(I)cc3)C(=O)O)nn2)CC1)C(=O)O)C(=O)O (stereo not shown) [^177Lu-PSMA-ALB-01, metal not drawn]"
quantity_measured = "Heart"
quantitative_result = 5.93


// compound O=C(O)CCC(NC(=O)NC(CCCCNC(=O)C(Cc1ccc2ccccc2c1)NC(=O)C1CCC(CNC(=O)C(CCCCNC(=O)CCCc2ccc(I)cc2)NC(=O)CN2CCN(CC(=O)O)CCN(CC(=O)O)CCN(CC(=O)O)CC2)CC1)C(=O)O)C(=O)O (stereo not shown) [^177Lu-PSMA-ALB-03, metal not drawn] , assay PC-3 PIP/flu tumor-bearing mice, Heart value: 6.60
